ASSAY_SYSTEM: T1, alpha-s1 casein from Bos taurus
T1 chain: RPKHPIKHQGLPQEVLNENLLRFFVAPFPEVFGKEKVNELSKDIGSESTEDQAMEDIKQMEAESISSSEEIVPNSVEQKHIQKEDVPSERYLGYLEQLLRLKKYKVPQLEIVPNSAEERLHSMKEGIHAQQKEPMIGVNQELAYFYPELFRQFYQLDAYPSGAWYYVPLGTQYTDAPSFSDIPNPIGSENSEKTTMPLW
MEASURED_QUANTITY: αs1 CN, 24 hours, 11° C. (Volume)
Please reply with the bare figure in Volume and do not write the unit itself.

Request: Please give the measured αs1 CN, 24 hours, 11° C. for this protein: camel chymosin variant #145 (F223I) (protein) GKVAREPLTSYLDSQYFGKIYIGTPPQEFTVVFDTGSSDLWVPSIYCKSNVCKNHHRFDPRKSSTFRNLGKPLSIHYGTGSMEGFLGYDTVTVSNIVDPNQTVGLSTEQPGEVFTYSEFDGILGLAYPSLASEYSVPVFDNMMDRHLVARDLFSVYMDRNGQGSMLTLGAIDPSYYTGSLHWVPVTLQQYWQFTVDSVTINGVAVACVGGCQAILDTGTSVLIGPSSDILKIQMAIGATENRYGEFDVNCGNLRSMPTVVFEINGRDYPLSPSAYTSKDQGFCTSGFQGDNNSELWILGDVFIREYYSVFDRANNRVGLAKAI
Result: 2.8e+06

Where do these numbers come from? They come from patent US20150140169.
